# Test system: human Matrix Metalloproteinase-9 (MMP9), MMP9 (gene 4318)
# Assay overview: NVS_ENZ_hMMP9: NovaScreen (NVS) Enzymatic Assay for human Matrix Metalloproteinase-9 (MMP9) (AID 2283190);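 note: cell-free recombinant MMP9 protease activity read by fluorescent substrate signal; active means inhibition seen as loss of fluorescence signal versus DMSO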
# Protocol: NVS_ENZ_hMMP9 is a biochemical, single-readout assay that uses extracted gene-proteins in a cell-free assay. Measurements were taken 1 hour after chemical dosing in a 96-well plate.NVS_ENZ_hMMP9 is one of one assay component(s) measured or calculated from the NVS_ENZ_hMMP9 assay. […] This assay endpoint, NVS_ENZ_hMMP9, was analyzed in the positive analysis fitting direction relative to DMSO as the negative control and baseline of activity. […]
Records with an inconclusive call do not appear. Activity calls are given as the source filed them. Rule for the calls: active = hit-call score of the fitted dose curve at least 0.9, where 1 is the maximum; inconclusive = response in the unintended direction; inactive = score below 0.9.
Labels: Yes (active), No (inactive)

[
  {
    "Molecule": "CC(Cc1ccc(OCC(=O)O)cc1)NCC(O)c1csc(C(F)(F)F)n1 (centres undefined)",
    "Test system": "human Matrix Metalloproteinase-9 (MMP9), MMP9 (gene 4318)",
    "Class label": "No"
  },
  {
    "Molecule": "O=P(OCC(Br)CBr)(OCC(Br)CBr)OCC(Br)CBr (centres undefined)",
    "Test system": "human Matrix Metalloproteinase-9 (MMP9), MMP9 (gene 4318)",
    "Class label": "Yes"
  },
  {
    "Molecule": "CCCCC(CC)COP(=O)(Oc1ccccc1)Oc1ccccc1 (centres undefined)",
    "Test system": "human Matrix Metalloproteinase-9 (MMP9), MMP9 (gene 4318)",
    "Class label": "Yes"
  },
  {
    "Molecule": "CCC1(c2ccccc2)C(=O)N=C(O)NC1=O (centres undefined)",
    "Test system": "human Matrix Metalloproteinase-9 (MMP9), MMP9 (gene 4318)",
    "Class label": "No"
  }
]

====

# Assay overview: CEETOX_H295R_MTT_cell_viability: Viability Assessment in the CeeTox HT-H295R MTT Assay (AID 2283718)
Calls of active or inactive are those of the source. How the source made its calls: active means hit-call score of the fitted dose curve at least 0.9, where 1 is the maximum; inactive means score below 0.9.
Labels: Y (active), N (inactive)

[
  {
    "Compound": "N#Cc1c(-c2ccc(Cl)cc2)[nH]c(C(F)(F)F)c1Br",
    "Class label": "Y"
  },
  {
    "Compound": "CCOP(=S)(OCC)SCS(=O)(=O)CC",
    "Class label": "N"
  },
  {
    "Compound": "Nc1ccc([N+](=O)[O-])cc1Cl",
    "Class label": "N"
  },
  {
    "Compound": "CCOc1ccc(C(C)(C)COCc2cccc(Oc3ccccc3)c2)cc1",
    "Class label": "N"
  },
  {
    "Compound": "CCOC(=O)c1ccccc1N",
    "Class label": "N"
  },
  {
    "Compound": "CCCCOCCOP(=O)(OCCOCCCC)OCCOCCCC",
    "Class label": "N"
  },
  {
    "Compound": "c1ccc(OP(Oc2ccccc2)Oc2ccccc2)cc1",
    "Class label": "N"
  },
  {
    "Compound": "CC(=O)c1ccc(-c2ccccc2)cc1",
    "Class label": "N"
  },
  {
    "Compound": "Nc1cc2c3c(c1)C(c1ccccc1)=N[C@@H](NC(=O)c1cccnc1)C(=O)N3CC2",
    "Class label": "N"
  },
  {
    "Compound": "CCOP(=S)(NC(C)C)Oc1ccccc1C(=O)OC(C)C (centres undefined)",
    "Class label": "N"
  },
  {
    "Compound": "Nc1ccc(Cl)cc1",
    "Class label": "N"
  },
  {
    "Compound": "CCOP(=S)(OCC)SCn1nnc2ccccc2c1=O",
    "Class label": "N"
  },
  {
    "Compound": "CO/N=C(/C(=O)OC)c1ccccc1COc1ccccc1C",
    "Class label": "Y"
  },
  {
    "Compound": "CCOP(=S)(Oc1ccc([N+](=O)[O-])cc1)c1ccccc1 (centres undefined)",
    "Class label": "N"
  },
  {
    "Compound": "COP(N)(=S)OC",
    "Class label": "N"
  },
  {
    "Compound": "CCOC(=O)c1ccccc1C(=O)OCC",
    "Class label": "N"
  },
  {
    "Compound": "Cc1ccc(N)cc1N",
    "Class label": "N"
  },
  {
    "Compound": "CCC(C)(C)c1ccc(O)cc1",
    "Class label": "N"
  },
  {
    "Compound": "O=P(Oc1ccccc1)(Oc1ccccc1)Oc1ccccc1",
    "Class label": "N"
  }
]

====

# Read-out: UDP glucuronosyltransferase (UGT1A1), UGT1A1 (gene 54658)
# Assay overview: LTEA_HepaRG_UGT1A1: Life Technologies and Expression Analysis (LTEA) Assay for UDP glucuronosyltransferase (UGT1A1) using HepaRG (AID 2283538)
# Test settings: mRNA level, 48 h; actives raise or lower the signal
The source made the active and inactive calls. The calls were made as follows: active = hit-call score of the fitted dose curve at least 0.9, where 1 is the maximum; inactive = score below 0.9.
Labels: active, inactive

[
  {
    "Compound": "O=C(O)C1C(C(=O)O)C2(Cl)C(Cl)=C(Cl)C1(Cl)C2(Cl)Cl (centres undefined)",
    "Class label": "inactive"
  },
  {
    "Compound": "CCCCCCCc1ccc(O)cc1",
    "Class label": "inactive"
  },
  {
    "Compound": "CCC(C)(C)c1ccc(O)cc1",
    "Class label": "inactive"
  },
  {
    "Compound": "O=[N+]([O-])c1ccccc1",
    "Class label": "inactive"
  },
  {
    "Compound": "CCNc1nc(Cl)nc(NC(C)(C)C)n1",
    "Class label": "active"
  },
  {
    "Compound": "Nc1cc2c3c(c1)C(c1ccccc1)=N[C@@H](NC(=O)c1cccnc1)C(=O)N3CC2",
    "Class label": "inactive"
  },
  {
    "Compound": "O=P1(N(CCCl)CCCl)NCCCO1 (centres undefined)",
    "Class label": "inactive"
  },
  {
    "Compound": "CC(Cc1ccc(OCC(=O)O)cc1)NCC(O)c1csc(C(F)(F)F)n1 (centres undefined)",
    "Class label": "inactive"
  },
  {
    "Compound": "CCOC(=O)c1ccccc1C(=O)OCC",
    "Class label": "inactive"
  },
  {
    "Compound": "CCCN(CCC)c1c([N+](=O)[O-])cc(C(C)C)cc1[N+](=O)[O-]",
    "Class label": "active"
  },
  {
    "Compound": "ClC(Cl)(Cl)c1ccccc1",
    "Class label": "inactive"
  },
  {
    "Compound": "CCCCc1ccccc1",
    "Class label": "inactive"
  },
  {
    "Compound": "CC(Cl)(Cl)C(=O)O",
    "Class label": "inactive"
  },
  {
    "Compound": "[N-]=[N+]=[N-]",
    "Class label": "active"
  }
]

====

# Read-out: Paternally Expressed 10 (PEG10), PEG10 (gene 23089)
# Assay overview: LTEA_HepaRG_PEG10: Life Technologies and Expression Analysis (LTEA) Assay for Paternally Expressed 10 (PEG10) using HepaRG (AID 2283520)
# Test settings: mRNA level, 48 h; actives raise or lower the signal
The source made the active and inactive calls. How the source made its calls: active means hit-call score of the fitted dose curve at least 0.9, where 1 is the maximum; inactive means score below 0.9.
Labels: 1 (yes) (active), 0 (no) (inactive)

[
  {
    "Compound": "COCCOCCO",
    "Class label": "0 (no)"
  },
  {
    "Compound": "ClC1=C(Cl)C2(Cl)C3C(Cl)C(Cl)CC3C1(Cl)C2(Cl)Cl (stereo not given)",
    "Class label": "1 (yes)"
  },
  {
    "Compound": "CCNc1nc(Cl)nc(NC(C)(C)C)n1",
    "Class label": "1 (yes)"
  },
  {
    "Compound": "c1nc[nH]n1",
    "Class label": "0 (no)"
  },
  {
    "Compound": "CC(C)(C)OOC(C)(C)C",
    "Class label": "0 (no)"
  }
]

====

# Read-out: Interleukin 6 (IL6), IL6 (gene 3569)
# Assay overview: BSK_BT_xIL6: BioMAP Diversity Plus: BT Assay for Interleukin 6 (IL6) Biomarker Activity (AID 2284228)
# Test settings: primary human B cells with PBMC
Active and inactive are the calls of the source. Rule for the calls: active = hit-call score of the fitted dose curve at least 0.9, where 1 is the maximum; inactive = score below 0.9.
Labels: label 1 for active, label 0 for inactive

[
  {
    "Molecule": "CCOP(=S)(OCC)SCn1nnc2ccccc2c1=O",
    "Class label": "label 0"
  },
  {
    "Molecule": "O=C(O)C(F)(F)OC(F)(F)C(F)(F)OC(F)(F)F",
    "Class label": "label 0"
  },
  {
    "Molecule": "CCOP(=S)(S)OCC",
    "Class label": "label 0"
  },
  {
    "Molecule": "CCCCC(CC)COP(=O)(Oc1ccccc1)Oc1ccccc1 (centres undefined)",
    "Class label": "label 1"
  },
  {
    "Molecule": "CC(C)(C)c1ccccc1OP(=O)(Oc1ccccc1)Oc1ccccc1",
    "Class label": "label 1"
  },
  {
    "Molecule": "O=c1ssc(Cl)c1Cl",
    "Class label": "label 1"
  },
  {
    "Molecule": "FC(F)(F)C(F)(C(F)(F)F)C(F)(F)C(F)(F)CC1CO1 (centres undefined)",
    "Class label": "label 0"
  },
  {
    "Molecule": "CCOP(=S)(OCC)SCSc1ccc(Cl)cc1",
    "Class label": "label 0"
  },
  {
    "Molecule": "O=C(O)C(F)(F)C(F)(F)C(=O)O",
    "Class label": "label 0"
  }
]
